- assay system: TYK2 (Homo sapiens)
- Construct: JAK1 (aa 850-1154) and TYK2 (aa 871-1187) are expressed with an N-terminally fused GST-tag; GST (N)
- Sequence (P29597 871-1187): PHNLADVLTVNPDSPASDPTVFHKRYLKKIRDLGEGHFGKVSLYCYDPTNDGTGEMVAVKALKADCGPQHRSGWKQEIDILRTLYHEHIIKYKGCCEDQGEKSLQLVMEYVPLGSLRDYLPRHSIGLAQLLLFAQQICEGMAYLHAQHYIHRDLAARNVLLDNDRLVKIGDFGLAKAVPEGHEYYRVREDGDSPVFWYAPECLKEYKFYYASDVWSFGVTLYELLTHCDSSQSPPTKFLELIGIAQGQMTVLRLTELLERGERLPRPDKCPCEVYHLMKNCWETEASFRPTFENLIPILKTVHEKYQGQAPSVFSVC
- assay info: JAK kinase assay (HTRF, phosphorylation of synthetic peptide), TYK2
- experimental parameters: catalytic domain, ATP at Km (13 μM); read-out: TYK2 kinase inhibitory activity (EC50)
pEC50: −log10 of the molar value.
Each entry below carries its recorded pEC50.

Examples from the recorded data:
{"columns": ["compound", "pEC50"],
 "data": [
  ["O=S(=O)(N1CCN(c2ncnc3[nH]ccc23)CC12CC2)n1ccnc1 [Int 15]", "< 6.30"],
  ["CN(CC1CCCN(S(C)(=O)=O)C1)S(=O)(=O)N1CCN(c2ncnc3[nH]ccc23)CC12CC2 (stereo not shown) [Example 160]", "6.30 to 7.00"],
  ["CN(C[C@H]1CCCN1S(=O)(=O)CCCC#N)S(=O)(=O)N1CCN(c2ncnc3[nH]ccc23)CC12CC2 [Example 182]", "> 7.00"]
]}

Attention now shifts to the item below.
Query: // fetch TYK2 (Homo sapiens) pEC50 for CC(=O)N(CC1CCS(=O)(=O)C1)S(=O)(=O)N1CCN(c2ncnc3[nH]ccc23)CC12CC2 (stereo not shown) [Example 172]
Reply: 6.30 to 7.00

* * *

Each entry below carries its recorded pEC50.
- assay system: TYK2 (Homo sapiens)
- Construct: JAK1 (aa 850-1154) and TYK2 (aa 871-1187) are expressed with an N-terminally fused GST-tag; GST (N)
- Sequence (P29597 871-1187): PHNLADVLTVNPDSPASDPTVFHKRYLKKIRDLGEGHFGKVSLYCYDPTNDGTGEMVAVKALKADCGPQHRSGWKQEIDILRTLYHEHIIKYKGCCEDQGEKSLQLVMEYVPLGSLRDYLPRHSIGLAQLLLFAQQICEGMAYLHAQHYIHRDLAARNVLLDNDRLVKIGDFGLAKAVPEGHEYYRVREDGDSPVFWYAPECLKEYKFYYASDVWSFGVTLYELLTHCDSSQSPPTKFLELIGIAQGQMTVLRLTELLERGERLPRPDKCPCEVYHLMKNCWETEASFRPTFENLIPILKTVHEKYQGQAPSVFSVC
- assay info: JAK kinase assay (HTRF, phosphorylation of synthetic peptide), TYK2
- experimental parameters: catalytic domain, ATP at Km (13 μM); read-out: TYK2 kinase inhibitory activity (EC50)
pEC50: −log10 of the molar value.

{"columns": ["compound", "assay system", "pEC50"],
 "data": [
  ["CN(C[C@@H]1CC(F)(F)CN1S(=O)(=O)CCCC#N)S(=O)(=O)N1CCN(c2ncnc3[nH]ccc23)CC12CC2 [Example 163]", "TYK2 (Homo sapiens)", "> 7.00"]
]}

Query: Form field: reported pEC50 of O=C(CN(CCc1ccccc1)S(=O)(=O)N1CCN(c2ncnc3[nH]ccc23)CC12CC2)NCc1ccccc1 [Example 49]
Reply: < 6.30

Query: Form field: reported pEC50 of N#CCN(C1COC1)S(=O)(=O)N1CCN(c2ncnc3[nH]ccc23)CC12CC2 [Example 113]
Reply: > 7.00

Query: Form field: reported pEC50 of CN(C)C(=O)CN(C)S(=O)(=O)N1CCN(c2ncnc3[nH]ccc23)CC12CC2 [Example 36]
Reply: 6.30 to 7.00

Query: Form field: reported pEC50 of CN(C[C@@H]1CC(F)(F)CN1C=O)S(=O)(=O)N1CCN(c2ncnc3[nH]ccc23)CC12CC2 [Example 157]
Reply: > 7.00
